protocol text: SK-BR-3 cell growth inhibitors, pilot screen, 24 h, human (AID 572);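 further: compound exposure lasted between 18 and 24 h rather than exactly 24 h; 100% = carrier-treated control wells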
setup conditions: SK-BR-3 viability, CellTiter-Glo luminescence, at 10 µM, hits give low values
metric: viability (%)

COc1ccc2cnn(-c3ccccc3C)c(=O)c2c1OC | 88
CC1C/C=C/C=C/C=C/C=C/C(O[C@@H]2O[C@H](C)[C@@H](O)[C@H](N)[C@@H]2O)CC2OC(O)(CC(O)CC3OC3/C=C/C(=O)O1)CC(O)C2C(=O)O (stereo partly drawn) | 121
Cc1ccc(NC(=O)COC(=O)c2ccn(C)n2)cc1 | 76
Cc1cc(C(=O)Nc2nnc(C(F)(F)F)s2)no1 | 98
CCC(=O)c1ccc(O)cc1 | 96
OC1C=CSc2nc3ccccc3n21 (stereo not drawn) | 83.5
C=COCCNC(=O)Nc1ccc(Cl)c(Cl)c1 | 91
O=C1C2CCCN2C(c2ccccc2)N1c1ccc(Cl)cc1 (stereo not drawn) | 110
CCOC(=O)CSc1nc2cc(C(=O)N3CCC(C(N)=O)CC3)ccc2c(=O)n1-c1ccccc1 | 98
Cc1ccc(-c2nc3cc(NC(=O)C(C)C)ccc3o2)cc1C | 80
Cc1ccc2c(c1)CCCN2C(=O)c1ccc2c(c1)OCO2 | 48
COC(=O)c1ccc2c(=O)n(CC3CCCO3)c(=S)[nH]c2c1 (stereo not drawn) | 84
Cn1c(=O)[nH]c(=O)c2c1nc(N1CCc3ccccc3C1)n2CCSc1nc2ccccc2s1 | 72
COC(=O)c1c(NC(=O)CSc2nnnn2C)sc(C)c1C | 96
CCOc1ccc(NC(=O)COC(=O)Cn2cnnn2)cc1OCC | 86
CCc1nnc(NC(=O)c2ccc(S(=O)(=O)N(CC(C)C)CC(C)C)cc2)o1 | 77
Cn1c(=O)[nH]c(=O)c2c1nc(Br)n2Cc1ccccc1F | 116
COc1ccccc1NC(=O)C(C)NS(=O)(=O)c1ccc(F)cc1 (stereo not drawn) | 141
CC(=O)Nc1ccc(NC(=O)C(C)Oc2ccccc2F)cc1 (stereo not drawn) | 102
S=C(c1ccc(N2CCOCC2)cc1)N1CCCCC1 | 103
NNC(=O)c1ccncc1 | 108
Cc1cc(C(=O)Nc2ccc(S(=O)(=O)Nc3onc(C)c3C)cc2)cs1 | 101
CC(=O)Nc1nc(C)c(-c2csc(Nc3ccc(O)cc3)n2)s1 | 114
